# Test system: primary cortico-hippocampal neuron cultures
# protocol.details: lactate dehydrogenase (LDH) activity assay in parallel neuron cultures
# test.settings: primary screening; table sorted by Aβ1-42
Structures can show the parent of a compound that is named as a salt.
endpoint.name: LDH (% of ctl)

compound	measured.result
CC(CCc1ccccc1)NCC(O)c1ccc(O)c(C(N)=O)c1 (stereo not shown) [Labetalol Hydrochloride]	164.0 % of ctl
Fc1ccc(C(c2ccc(F)cc2)N2CCN(C/C=C/c3ccccc3)CC2)cc1 [Flunarizine Hydrochloride]	120.4 % of ctl
O=c1oc2ccccc2c(O)c1Cc1c(O)c2ccccc2oc1=O	93.3 % of ctl

Give the measured LDH (% of ctl) of CC(C)(C)NCC(O)COc1cccc2c1CC(O)C(O)C2 (stereo not shown) .
106.5 % of ctl
